Reference source: ChEMBL document CHEMBL3988442

systemName: Proteasome subunit beta (Trypanosoma cruzi) (UniProt O96673)
Sequence (O96673 as listed by the source): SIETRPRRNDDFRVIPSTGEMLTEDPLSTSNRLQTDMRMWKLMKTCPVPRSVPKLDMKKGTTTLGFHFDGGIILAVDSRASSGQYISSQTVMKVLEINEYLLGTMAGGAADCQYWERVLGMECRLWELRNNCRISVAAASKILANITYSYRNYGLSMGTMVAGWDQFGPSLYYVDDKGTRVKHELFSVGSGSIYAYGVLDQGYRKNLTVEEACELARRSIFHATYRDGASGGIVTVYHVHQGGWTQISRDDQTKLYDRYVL
assayInfo: Trypanosoma cruzi proteasome chymotrypsin-like activity (TcProtChymo) assay. Further: in the data most compounds retested in dose-response had high values.
Assay type: functional
Design: scale not given: direction of the effect not stated beside the values
conditionDescription: 9.37 µM
Reported Percent Effect values are given for each entry in this list.
Give the value, in units of %, as a plain number.

Provide Percent Effect value for the following compound: "Cc1cc(C(=O)NCc2cccnc2OC(C)C)no1"
3.42

Provide Percent Effect value for the following compound: "Cn1cc(CN2CCn3cc(CNC(=O)C4CCC4)nc3C2)cn1"
7.69

Provide Percent Effect value for the following compound: O=C(c1cc(COc2ccc3c(c2)OCO3)[nH]n1)N1CC=CC1CO (centres undefined)
15.3

Provide Percent Effect value for the following compound: Cc1nnc(SCC(=O)N2CCC3(CC2)c2ccccc2CC3O)o1 (centres undefined)
7.49

Provide Percent Effect value for the following compound: CCC1CN(C(=O)Nc2cnc3c(cnn3C(C)C)c2)CCO1 (centres undefined)
17.6

Lab note: next compound to report on.
Provide Percent Effect value for the following compound: Cc1cc(C)n(CC2CCCN2C(=O)CCc2cscn2)n1 (centres undefined)
-4.51

* * *

systemName: Tyrosyl-tRNA synthetase, putative (Trypanosoma cruzi (strain CL Brener)) (UniProt Q4DSP6)
Sequence (Q4DSP6 as listed by the source): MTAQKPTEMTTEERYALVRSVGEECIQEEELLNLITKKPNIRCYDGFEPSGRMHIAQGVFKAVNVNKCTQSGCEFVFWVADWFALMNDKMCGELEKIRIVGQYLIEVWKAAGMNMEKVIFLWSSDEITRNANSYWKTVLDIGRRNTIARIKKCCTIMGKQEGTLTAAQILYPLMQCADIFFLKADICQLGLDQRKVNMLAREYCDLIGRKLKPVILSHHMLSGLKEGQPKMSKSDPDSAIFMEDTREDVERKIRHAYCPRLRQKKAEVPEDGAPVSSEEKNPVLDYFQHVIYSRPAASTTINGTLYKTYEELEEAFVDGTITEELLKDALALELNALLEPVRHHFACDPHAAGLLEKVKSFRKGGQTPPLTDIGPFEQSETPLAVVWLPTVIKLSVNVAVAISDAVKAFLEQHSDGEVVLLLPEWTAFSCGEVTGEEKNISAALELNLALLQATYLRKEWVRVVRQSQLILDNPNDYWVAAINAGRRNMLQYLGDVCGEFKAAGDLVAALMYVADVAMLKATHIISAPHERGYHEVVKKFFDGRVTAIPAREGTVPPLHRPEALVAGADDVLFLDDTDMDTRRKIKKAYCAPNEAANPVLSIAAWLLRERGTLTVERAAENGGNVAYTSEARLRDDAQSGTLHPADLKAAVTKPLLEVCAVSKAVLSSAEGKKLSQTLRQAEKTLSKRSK
assayInfo: Trypanosoma cruzi tyrosyl tRNA synthetase (TcYRS) _High Tyrosine SOP; further: in the data most compounds retested in dose-response had high values
Assay type: functional
Parameters: scale not given: direction of the effect not stated beside the values
conditionDescription: 30 µM
Reported Percent Effect values are given for each entry in this list.
Give the value, in units of %, as a plain number.

// known answers, use as guide
Provide Percent Effect value for the following compound: COc1cc(C2CC(=O)Oc3cc(C)[nH]c(=O)c32)ccc1OC(F)F (configuration not stated)
3.17

Provide Percent Effect value for the following compound: "CCOCCn1nc(C)cc1C(=O)N1CC[C@](C)(O)[C@H](C)C1"
2.65

Provide Percent Effect value for the following compound: COCC1CN(Cc2ccncc2)Cc2nnn(CC3CC3)c21 (configuration not stated)
0

Provide Percent Effect value for the following compound: O=C(NCc1cc(=O)n2c(n1)CN(CC1CCOC1)CCC2)C1CC1 (configuration not stated)
3.12

Others:
Provide Percent Effect value for the following compound: COc1ccc(NC(=O)N2CCCC2c2ccco2)cc1OC (configuration not stated)
-5.29

Provide Percent Effect value for the following compound: "COC(=O)N1CCCN(C(=O)NCc2ccc(Cl)s2)CC1"
7.29

* * *

Reported Percent Effect values are given for each entry in this list.
Organism: Homo sapiens
assayInfo: To identify inhibition of the IFN signalling (Jak-Stat) pathway via expression of an eGFP reporter gene under the control of an IFN-stimulated response element (ISRE) containing MxA promoter.
Type: functional
Set-up: scale not given: direction of the effect not stated beside the values
conditionDescription: 30 µM
Give the value, in units of %, as a plain number.

Provide Percent Effect value for the following compound: Cc1cncc(C2CCCN(C(=O)c3scnc3C)C2)n1 (stereo unspecified)
2.09

Provide Percent Effect value for the following compound: CCc1n[nH]c(C2CN(C(=O)c3cc4c(s3)CCCC4)CCO2)n1 (stereo unspecified)
30.5

Provide Percent Effect value for the following compound: "Cc1cc(C(=O)N2CCC(c3nccn3Cc3ccncc3)CC2)no1"
7.62

Provide Percent Effect value for the following compound: "Clc1ccccc1-c1nc(CNCCn2cccn2)cs1"
13.7

Provide Percent Effect value for the following compound: "CNC(=O)CSc1nc2c(cnn2Cc2ccc(F)cc2)c(=O)[nH]1"
33.3

Lab note: next compound to report on.
Provide Percent Effect value for the following compound: "CCCc1cc(C(=O)N(C)Cc2cccc3ncccc23)n(C)n1"
36.1

* * *

Test system: Trypanosoma cruzi
assayInfo: Trypanosoma cruzi phosphomannomutase and mannose-1-phosphate guanylyltransferase assay
Format: functional
Set-up: scale not given: direction of the effect not stated beside the values
conditionDescription: 10 µM
Reported Percent Effect values are given for each entry in this list.
Give the value, in units of %, as a plain number.

Provide Percent Effect value for the following compound: "N#Cc1ccccc1N1CCCN(C(=O)CCn2cccn2)CC1"
5.19

Provide Percent Effect value for the following compound: "Cc1ccc(CNC2CCN(CCc3ccncc3)CC2)s1"
-1.76

Provide Percent Effect value for the following compound: "Cc1ccc(CN2CCN(CC3CC3)[C@@H]3CS(=O)(=O)C[C@@H]32)cc1C"
-7.11

Others:
Provide Percent Effect value for the following compound: CN(Cc1cnn(C)c1)C(=O)NC1CCS(=O)(=O)C1 (centres undefined)
5.15

Provide Percent Effect value for the following compound: CC(C)COCC(NC(=O)c1cccnc1)c1ccco1 (centres undefined)
0.0943

Provide Percent Effect value for the following compound: "Cc1ccccc1C1(CNC(=O)NCCc2nnc3n2CCC3)CC1"
-3.41

Provide Percent Effect value for the following compound: CCc1ccc(C(=O)NC2CCN(c3cnn(C)c3)C2=O)o1 (centres undefined)
8.11

Provide Percent Effect value for the following compound: "CCCn1ccc(C(=O)N2CCC(C)CC2)n1"
0.295

Provide Percent Effect value for the following compound: "Cn1cnnc1S(=O)(=O)C1CCN(S(=O)(=O)c2c(Cl)cccc2Cl)CC1"
-1.76

* * *

systemName: AMP-activated protein kinase, AMPK (Homo sapiens) (UniProt P54646+O43741+P54619+Q9UGJ0+Q9Y478+Q13131+Q9UGI9)
assayInfo: AMP-dependent Kinase enzyme assay. An in vitro enzyme assay that detects ADP turnover that is directly proportional to AMPK activity. This uses naive AMPK that is activated during the assay with MK-8722
Format: functional
Parameters: scale not given: direction of the effect not stated beside the values
conditionDescription: 30 µM
reportedProperty: Percent Effect (%)
Give the value, in units of %, as a plain number.

// known answers, use as guide
Provide Percent Effect value for the following compound: "Cc1nonc1CC(=O)N1C[C@@H]2CC[C@H](C1)N(Cc1ccccc1)C2=O"
-1.13

Provide Percent Effect value for the following compound: "CC1CCN(CCNC(=O)c2ccccc2N2CCOCC2)CC1"
-2.96

Others:
Provide Percent Effect value for the following compound: "CCN(CC)C(=O)Cn1ccc2cc(NC(=O)C3CC3)ccc21"
-9.59

Provide Percent Effect value for the following compound: Cc1ccc(C2CSCCN2C(=O)C2=CCCC2)o1 (stereo unspecified)
-2.27

Provide Percent Effect value for the following compound: "Cn1cnc2c1CCN(CCCOc1ccc(C#N)cc1)C2"
-0.357

Provide Percent Effect value for the following compound: "Cc1c[nH]c(CN(C)c2nc(C3CCCC3)nc3c2cnn3C)n1"
3.98

* * *

systemName: Arginase-2, mitochondrial (Homo sapiens)
Sequence (whole entry): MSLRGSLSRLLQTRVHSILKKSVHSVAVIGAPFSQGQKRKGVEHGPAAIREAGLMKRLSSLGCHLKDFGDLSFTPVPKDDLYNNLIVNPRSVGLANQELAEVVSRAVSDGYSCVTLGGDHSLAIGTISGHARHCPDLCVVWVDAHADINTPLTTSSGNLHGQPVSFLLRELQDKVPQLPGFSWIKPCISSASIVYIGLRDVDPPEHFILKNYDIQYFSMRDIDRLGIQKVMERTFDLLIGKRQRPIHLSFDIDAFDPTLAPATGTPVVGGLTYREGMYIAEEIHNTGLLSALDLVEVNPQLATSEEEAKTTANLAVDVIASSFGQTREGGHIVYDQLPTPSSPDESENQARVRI
assayInfo: in vitro enzyme assay to detect the production of urea directly proportional to the activity of Arginase II; further: in the data most compounds retested in dose-response had high values
Assay type: functional
Design: scale not given: direction of the effect not stated beside the values
conditionDescription: 33.3 µM
Reported Percent Effect values are given for each entry in this list.
Give the value, in units of %, as a plain number.

Provide Percent Effect value for the following compound: "Cc1csc(N2CCCN(Cc3noc(C)n3)CC2)n1"
-7.1

Provide Percent Effect value for the following compound: Cc1cccc(S(=O)(=O)NCC(C)N2CCN(C)CC2)c1Cl (stereo unspecified)
-2.76

Provide Percent Effect value for the following compound: "CS(=O)(=O)N1CCCN(C(=O)c2ccc(Cn3ccccc3=O)o2)CC1"
2.77

Provide Percent Effect value for the following compound: COc1c(C2CCCN2Cc2cc(C)no2)c(C)nn1C (stereo unspecified)
3.88

Provide Percent Effect value for the following compound: "Cc1ccc(NC(=O)NCCCc2n[nH]c(N)c2C#N)cc1"
1.9

Lab note: next compound to report on.
Provide Percent Effect value for the following compound: "CC(=O)N1CCC(C(=O)N(C)[C@@H]2CCC[C@@H](N3CCCC3)[C@@H]2O)CC1"
-2.09

* * *

Tested on: Trypanosoma cruzi
assayInfo: Trypanosoma cruzi phosphomannomutase and mannose-1-phosphate guanylyltransferase assay
Type: functional
Design: scale not given: direction of the effect not stated beside the values
conditionDescription: 10 µM
Reported Percent Effect values are given for each entry in this list.
Give the value, in units of %, as a plain number.

Provide Percent Effect value for the following molecule: CC(O)CN1CCN(C(=O)c2cccc(CC#N)c2)CC1 (stereo not drawn)
0.749

Others:
Provide Percent Effect value for the following molecule: CC(=O)N(Cc1noc(C2CC2)n1)C1CCN(Cc2cccnc2)C1 (stereo not drawn)
-1.76

Provide Percent Effect value for the following molecule: "Cc1nc(CN2CCc3ncnc(-c4ccc(F)cc4)c3CC2)cs1"
-1.66

Provide Percent Effect value for the following molecule: Cc1nc(CCN(C)C(=O)C2COc3ccccc3C2)no1 (stereo not drawn)
8.55
